Molecular target: human Edg-1(S1P1) (Homo sapiens)
Construct: expressed in transfected cells; host or cells: HEK-293
Sequence (P21453 whole entry): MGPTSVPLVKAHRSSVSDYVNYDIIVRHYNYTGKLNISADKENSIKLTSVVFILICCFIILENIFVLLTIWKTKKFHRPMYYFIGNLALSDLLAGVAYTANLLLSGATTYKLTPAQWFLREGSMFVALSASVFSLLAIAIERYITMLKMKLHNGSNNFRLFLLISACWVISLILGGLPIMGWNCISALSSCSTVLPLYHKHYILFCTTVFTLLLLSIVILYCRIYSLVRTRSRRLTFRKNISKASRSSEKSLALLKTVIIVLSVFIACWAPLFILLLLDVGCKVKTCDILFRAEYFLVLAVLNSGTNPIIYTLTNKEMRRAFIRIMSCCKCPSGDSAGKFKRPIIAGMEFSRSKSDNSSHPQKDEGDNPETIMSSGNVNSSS
Experiment: Membrane system binding test: inhibition of [33P]-S1P binding to the membrane fraction of Edg-1(S1P1) gene transferred HEK-293 cells
Details: test compound 10^-5 M; [33P]-S1P 0.1 nM; 1 hour at 30° C.; HEK-293 membrane fraction; read-out: Edg-1(S1P1) binding inhibition rate (membrane system binding test)
quantity measured: inhibition at 10 µM

Please review the entries below; each comes with its answer.
# compound, inhibition at 10 µM
data = [
    ("CCn1c(OCC(F)(F)F)nnc1[C@@H](C)NS(=O)(=O)c1ccc(Br)c(C(F)(F)F)c1", "55.2%"),
    ("CCn1c(OCC(F)(F)F)nnc1[C@@H](C)NS(=O)(=O)c1ccc(Br)c(F)c1", "90.4%"),
    ("CCn1c(OC(C)C)nnc1[C@@H](C)NS(=O)(=O)c1ccc(F)c(Cl)c1", "89%"),
    ("CCn1c(OCC(F)(F)F)nnc1[C@@H](C)NS(=O)(=O)c1cc(Cl)c(Cl)s1", "70.9%"),
    ("CCn1c(OCC(F)(F)F)nnc1[C@@H](C)NS(=O)(=O)c1cc(F)c(Br)cc1F", "42.7%"),
]

q: Report inhibition at 10 µM for CCn1c(OC(C)C)nnc1[C@@H](C)NS(=O)(=O)c1ccc(Br)c(C)c1 please.
a: 101%

q: Using the record for COc1nnc([C@@H](C)NS(=O)(=O)c2ccc(Cl)cc2)n1C1CC1 , report its inhibition at 10 µM.
a: 101%

q: Requested read-out: inhibition at 10 µM. Entry: CCn1c(SC)nnc1C(Cc1ccc(C)cc1)NS(=O)(=O)c1ccc(Cl)c(Cl)c1 (centres unmarked)
a: 82.5%
